experiment: Cytotoxicity against human U937 cells assessed as cell viability after 72 hrs by MTT assay; type: cell-based, U-937; details: U937 cells, read-out: LC50
CC50 at 72 h vs 100 µM: less than gives Satisfied; not less than gives Not satisfied.

Reference set (6 entries):
Request: Decide: CC50 at 72 h of `O=C(N/N=C/c1ccc(O)cc1O)c1ccnc2ccccc12` strictly below 100 µM?
Result: Satisfied

Request: Please state whether CC50 at 72 h is below 100 µM for `O=C(N/N=C/c1cccc(O)c1O)c1ccnc2ccccc12`
Result: Satisfied

Request: Could you please tell me whether CC50 at 72 h recorded for `O=C(N/N=C/c1ccc(O)cc1O)c1ccc2ccccc2n1` is less than 100 µM?
Result: Satisfied

Request: Confirm or reject: CC50 at 72 h of `O=C(N/N=C/c1ccc(O)c(O)c1O)c1ccc2ccccc2n1` lies strictly below 100 µM
Result: Not satisfied

Request: Determine whether this compound shows CC50 at 72 h lower than 100 µM (ties excluded): `O=C(N/N=C/c1ccccc1O)c1ccc2ccccc2n1`
Result: Satisfied

Request: Here's an entry: `O=C(N/N=C/c1cc(O)ccc1O)c1ccnc2ccccc12` . Is its CC50 at 72 h below 100 µM?
Result: Not satisfied

Please turn your attention to the following entry.
Request: Determine whether this compound shows CC50 at 72 h lower than 100 µM (ties excluded): `O=C(N/N=C/c1cc(O)ccc1O)c1ccc2ccccc2n1`
Result: Not satisfied

----------
For each record, write down the corresponding EC50.
tested on: Trypanosoma cruzi; assay: Trypanocidal activity against intracellular amastigotes of Trypanosoma cruzi Tulahuen infected in human U937 cells assessed as reduction of viability of intracellular amastigotes by measuring beta-galactosidase activity after 72 hrs by spectrophotometry analysis; format: functional, organism-based; conditions: U-937, 72 h
Numbers only, in µg/mL.

Answered cases to consult:
Reading of EC50 for `O=C(Cn1ccnc1[N+](=O)[O-])NCc1ccccc1` with Trypanosoma cruzi: 10.5

Record `O=C(N/N=C/c1ccccc1O)c1ccc2ccccc2n1` / Trypanosoma cruzi, EC50 recorded as 1.4

GET /values?item= `O=C(N/N=C/c1ccc(O)cc1O)c1ccnc2ccccc12` &system= Trypanosoma cruzi returns EC50: 20.8

***
Observed EC50 on Trypanosoma cruzi, entry `O=C(N/N=C/c1ccc(O)cc1O)c1ccc2ccccc2n1` , equals 6.6
